# Tested system: Luciferin 4-monooxygenase (Photinus pyralis)
# Protocol notes: qHTS Assay for Inhibitors of Firefly Luciferase; note: % is set by controls: 0 for no effect and ±100 for the full control effect; nearly all actives have a fitted effect of over 40% in size
# Condition notes: purified firefly luciferase, luminescence, 8 min; series mostly up to 57.1 µM
About 1,600 (2.2%) of roughly 72,000 compounds were called active. The full list was thinned out, with actives kept by preference.
Property measured: activity change, negative = inhibition

>>> print(df.to_string())
                                     smiles                       property_measured                          result
0  CC[C@]1(O)C(=O)OCc2c1cc1n(c2=O)Cc2cc3ccccc3nc2-1  activity change, negative = inhibition   1.26% [at 11.4 µM] (inactive)
1  CC(C)(c1ccc(OC[C@@H]2CO2)cc1)c1ccc(OC[C@H]2CO2)cc1  activity change, negative = inhibition                        inactive
2           c1ccc(CN2CC[C@@]3(CCCNC3)C2)cc1  activity change, negative = inhibition  0.194% [at 11.4 µM] (inactive)
3            Cc1cccc([C@H](C)c2cnc[nH]2)c1C  activity change, negative = inhibition                        inactive
